Tested on: HCT-116 colon cancer xenografts
Experiment: Tumor growth inhibition of HCT-116 colon cancer xenografts in tumor-bearing nude mice (tumor volume, TGI %, RTV, T/C %)
Type: in vivo, Balb/c Nude mice
Conditions: Day 6; G3-G9 groups; single IP dose
Procedure: 4.1 Tumor cells: colon cancer HCT-116 cells, purchased from the Institute of Cell Biology, Chinese Academy of Sciences. […] The formations of tumor at the inoculation site of each group of nude mice were observed. The diameter of tumor nodule (D) was measured three times a week with round hole ruler, and the volume of tumor nodule (V) was calculated according to the following formula: […]. […] The relative proliferation rate T/C (%) was calculated as: […]. […]
The reader will find reported Day 6 (TGI %) values listed item by item below.
Quantity: Day 6 (TGI %)

| Compound | Test system | Units text | Value |
| --- | --- | --- | --- |
| O=C(Nc1nc(=O)n([C@@H]2O[C@H](CO)[C@@H](O)C2(F)F)cc1Br)OCc1ccccc1 [Compound G7] | HCT-116 colon cancer xenografts | % | 78.40 |
| CCCCOC(=O)Nc1nc(=O)n([C@@H]2O[C@H](CO)[C@@H](O)C2(F)F)cc1Br [Compound G6] | HCT-116 colon cancer xenografts | % | 84.52 |
| CC(C)(C)OC(=O)Nc1ccn([C@@H]2O[C@H](COC(=O)Cn3cnc([N+](=O)[O-])c3)[C@@H](O)C2(F)F)c(=O)n1 [Compound G9] | HCT-116 colon cancer xenografts | % | 80.67 |
| CC(C)(C)OC(=O)Nc1ccn([C@@H]2O[C@H](CO)[C@@H](O)C2(F)F)c(=O)n1 [Compound G3] | HCT-116 colon cancer xenografts | % | 57.20 |
| O=C(Nc1ccn([C@@H]2O[C@H](CO)[C@@H](O)C2(F)F)c(=O)n1)OCc1ccc([N+](=O)[O-])cc1 [Compound G5] | HCT-116 colon cancer xenografts | % | 90.77 |
| O=C(Nc1ccn([C@@H]2O[C@H](CO)[C@@H](O)C2(F)F)c(=O)n1)OCc1ccccc1 [Compound G4] | HCT-116 colon cancer xenografts | % | 89.82 |

----------
settings: Day 7; G10-G16 groups; single IP 400 mg/kg; Mean±SEM
The reader will find reported Weight change rate, Day 7 values listed item by item below.

| Compound | Weight change rate, Day 7 (%) |
| --- | --- |
| CCCCOC(=O)Nc1nc(=O)n([C@@H]2O[C@H](COC(=O)Cn3cnc([N+](=O)[O-])c3)C(O)C2(F)F)cc1I (stereo partly drawn) | −0.93 |
| O=C(COc1nc(Cl)c(Cl)cc1Cl)OCC1OC(n2cc(-c3cn(Cc4ccccc4)nn3)c(NC(=O)OCc3ccc([N+](=O)[O-])cc3)nc2=O)C(F)(F)C1O (stereo not drawn) | −2.67 |
| CCCCOC(=O)Nc1nc(=O)n(C2OC(COC(=O)COc3nc(Cl)c(Cl)cc3Cl)C(O)C2(F)F)cc1-c1cn(Cc2ccccc2)nn1 (stereo not drawn) | −1.96 |
| O=C(COc1nc(Cl)c(Cl)cc1Cl)OC[C@H]1O[C@@H](n2cc(Br)c(NC(=O)OCc3ccccc3)nc2=O)C(F)(F)C1O (stereo partly drawn) | 0.61 |
| CCCCOC(=O)Nc1nc(=O)n(C2OC(COC(=O)COc3nc(Cl)c(Cl)cc3Cl)C(O)C2(F)F)cc1I (stereo not drawn) | −3.58 |
| CCCCOC(=O)Nc1nc(=O)n(C2OC(COC(=O)COc3nc(Cl)c(Cl)cc3Cl)C(O)C2(F)F)cc1Br (stereo not drawn) | −1.73 |
